Data provenance: ChEMBL document CHEMBL3734690

- assayComment: in vivo
- conditionParameters: mouse, plasma, po, 20 mg/kg
- Description: Plasma concentration in mouse at 20 mg/kg, po after 2 hrs
Think of 6000 nM as a floor: if concentration at 2 h stands on it or above, it is T; beneath it, F.

[
  {
    "recordSmiles": "Cc1c(C)n(Cc2ccc(-c3ccccc3C(=O)O)cc2)c2ccc(C(=O)N[C@@H](C)c3ccc(C(C)(C)C)cc3)cc12",
    "groupLabel": "F"
  },
  {
    "recordSmiles": "Cc1c(C)n(Cc2ccc(-c3ccccc3-c3n[nH]c(=O)o3)cc2)c2ccc(C(=O)N[C@@H](C)c3cccc(C(C)C)c3)cc12",
    "groupLabel": "F"
  },
  {
    "recordSmiles": "Cc1c(C)n(Cc2ccc(-c3ccccc3C(N)=O)cc2)c2ccc(C(=O)N[C@@H](C)c3cccc(C(C)C)c3)cc12",
    "groupLabel": "F"
  },
  {
    "recordSmiles": "Cc1c(C)n(Cc2ccc(-c3ccccc3C(=O)NO)cc2)c2ccc(C(=O)N[C@@H](C)c3cccc(C(C)C)c3)cc12",
    "groupLabel": "F"
  }
]

Does "Cc1c(C)n(Cc2ccc(-c3ccccc3C(=O)O)cc2)c2ccc(C(=O)N[C@@H](C)c3cccc(C4CC4)c3)cc12" have a reported concentration at 2 h of at least 6000 nM? T
